protocol.text: Caspofungin plasma concentrations and pharmacokinetics in lung transplant recipients with and without ECMO
Format: in vivo, human
assay.setup: human, in vivo, iv, ECMO group (n = 12, VV-ECMO); 50 mg i.v. every 24 h; 2nd dose; median (IQR); read-out: CL, clearance (converted)
readout.type: clearance (mL/min)
Answers are plain numbers, in mL/min.

Reported clearance, compound CC[C@H](C)C[C@H](C)CCCCCCCCC(=O)N[C@H]1C[C@@H](O)[C@@H](NCCN)NC(=O)[C@@H]2[C@@H](O)CCN2C(=O)[C@H]([C@H](O)CCN)NC(=O)[C@H]([C@H](O)[C@@H](O)c2ccc(O)cc2)NC(=O)[C@@H]2C[C@@H](O)CN2C(=O)[C@H]([C@@H](C)O)NC1=O : ____
4.5

---

protocol.text: Caspofungin plasma concentrations and pharmacokinetics in lung transplant recipients with and without ECMO
Type: in vivo, human
assay.setup: human, in vivo, iv; ECMO group (n = 12, VV-ECMO), lung transplant recipients; 50 mg i.v. infusion every 24 h, no loading dose; 2nd dose, first day after surgery; plasma, UPLC-MS/MS; median (IQR); read-out: Cmax, peak plasma concentration
readout.type: Cmax (ng/mL)
Answers are plain numbers, in ng/mL.

Fill in the blank: the reported Cmax of CC[C@H](C)C[C@H](C)CCCCCCCCC(=O)N[C@H]1C[C@@H](O)[C@@H](NCCN)NC(=O)[C@@H]2[C@@H](O)CCN2C(=O)[C@H]([C@H](O)CCN)NC(=O)[C@H]([C@H](O)[C@@H](O)c2ccc(O)cc2)NC(=O)[C@@H]2C[C@@H](O)CN2C(=O)[C@H]([C@@H](C)O)NC1=O is ____.
16700

---

protocol.text: Caspofungin plasma concentrations and pharmacokinetics in lung transplant recipients with and without ECMO
Type: in vivo, human
assay.setup: human, plasma, iv, 50 mg, ECMO group (n = 12, VV-ECMO); 50 mg i.v. every 24 h; 2nd dose; plasma, UPLC-MS/MS; median (IQR); read-out: Cmin, trough plasma concentration
readout.type: level at 24 h
Returns: string containing the number followed by the unit.

Suppose we examine the molecule CC[C@H](C)C[C@H](C)CCCCCCCCC(=O)N[C@H]1C[C@@H](O)[C@@H](NCCN)NC(=O)[C@@H]2[C@@H](O)CCN2C(=O)[C@H]([C@H](O)CCN)NC(=O)[C@H]([C@H](O)[C@@H](O)c2ccc(O)cc2)NC(=O)[C@@H]2C[C@@H](O)CN2C(=O)[C@H]([C@@H](C)O)NC1=O ; what level at 24 h value has been reported?
3500 ng/mL

The reported measurements were obtained from paper PMC7577146.
